# Tested on: SEM cells
# procedure.text: cell viability relative to DMSO control; higher = less cytotoxic
# condition.set: RPMI 5 mM glucose + 10% FBS; 48 h; 46.1 µM
value.kind: cell viability (%)
Give just the numeric value; % need not be written.

Examples with their reported cell viability follow.
{"compound": "NC1=C(Cl)C(=CC=N1)OC2=C(F)C=C(NC(=O)\\C3=C\\N\\C=C(C3=O)\\C4=CC=C(F)C=C4)C=C2", "cell viability, %": 3.66}
{"compound": "O=C1NC(=O)/C(=C/c2ccc3nccc(-c4ccncc4)c3c2)S1", "cell viability, %": 1.09}
{"compound": "CC(C)(C#N)c1cc(Cn2cncn2)cc(C(C)(C)C#N)c1", "cell viability, %": 111}

With those in mind, consider the next compound.
Would you kindly share the measured cell viability for `COc1cc(F)c(F)c(Nc2ccc(I)cc2F)c1N[S+](=O)([O-])C1(C[C@H](O)CO)CC1` ?
15.3

====

# Test system: SEM cells
# procedure.text: AUC of viability dose-response curve (% viability x log10 dose units); higher = less sensitive
# condition.set: HPLM + 10% dialyzed FBS; 48 h
value.kind: AUC of viability dose-response curve
Number, no unit, nothing else.

{"molecule": "O=C(O)Cn1nnc(-c2cc(N3CCC(Oc4cc(F)ccc4Br)CC3)no2)n1", "AUC of viability dose-response curve": 422}
{"molecule": "C1=C/COCc2cc(ccc2OCCN2CCCC2)Nc2nccc(n2)-c2cccc(c2)OCC/1", "AUC of viability dose-response curve": 354}
{"molecule": "O=C(O)CCC1CCC(c2cc(F)ccc2F)([S+](=O)([O-])c2ccc(Cl)cc2)CC1 (stereo not drawn)", "AUC of viability dose-response curve": 464}
{"molecule": "CNc1nc(Nc2ccc(C(=O)N3CCOCC3)cc2OC)ncc1Cl", "AUC of viability dose-response curve": 434}
{"molecule": "O=C1NC(=O)/C(=C/c2ccc3nccc(-c4ccncc4)c3c2)S1", "AUC of viability dose-response curve": 289}

# value lookup — system SEM cells, readout AUC of viability dose-response curve, item O=C(NCC1CCCCN1)c1cc(OCC(F)(F)F)ccc1OCC(F)(F)F (stereo not drawn)
457

API: value(readout=AUC of viability dose-response curve, system=SEM cells) for record `COc1ccc(-c2ccc3c(N4CCOCC4)nc(N4C[C@@H](C)O[C@@H](C)C4)nc3n2)cc1CO`
343

Could you share what AUC of viability dose-response curve was measured for CC(C)C1NC(=O)C(NC(=O)C2=C3\N=C\4/C(=C(C)\C(=O)\C(=C4C(=O)NC5C(C)OC(=O)C(C(C)C)N(C)C(=O)CN(C)C(=O)C6CCCN6C(=O)C(NC5=O)C(C)C)N)OC3=C(C)C=C2)C(C)OC(=O)C(C(C)C)N(C)C(=O)CN(C)C(=O)C7CCCN7C1=O (stereo not drawn) , tested on SEM cells?
26.3

====

# Lookup of reported cell viability keyed by entry
# Test system: SEM cells
# procedure.text: cell viability relative to DMSO control; higher = less cytotoxic
# condition.set: HPLM + 10% dialyzed FBS; 48 h; 0.19 µM
Give the value, in units of %, as a plain number.

Examples from the recorded data:
{"molecule": "C[C@@H](Oc1cc(-c2cnn(C3CCNCC3)c2)cnc1N)c1c(Cl)ccc(F)c1Cl", "unit.info": "%", "value.measured": 114}
{"molecule": "CCN(CC)CCCCNc1ncc2cc(-c3cc(OC)cc(OC)c3)c(NC(=O)NC(C)(C)C)nc2n1", "unit.info": "%", "value.measured": 98.6}
{"molecule": "C[C@@H]1COCCN1c1cc(C2([S@+](C)(=N)[O-])CC2)nc(-c2ccnc3[nH]ccc23)n1", "unit.info": "%", "value.measured": 93.4}
{"molecule": "C[S+](=O)([O-])Nc1ccc([N+](=O)[O-])cc1Oc1ccccc1", "unit.info": "%", "value.measured": 121}
{"molecule": "c1ccc2[nH]c(-c3cscn3)nc2c1", "unit.info": "%", "value.measured": 105}
{"molecule": "CCc1ccc(CCOc2ccc(CC3SC(=O)NC3=O)cc2)nc1 (configuration not stated)", "unit.info": "%", "value.measured": 108}
{"molecule": "C[C@H]1COC2=C3N1\\C=C(C(O)=O)/C(=O)C3=CC(=C2N4CCN(C)CC4)F", "unit.info": "%", "value.measured": 110}
{"molecule": "O=C(c1ccc(F)cc1)N1CCC[C@H](c2nc(-c3ccc(F)cc3)no2)C1", "unit.info": "%", "value.measured": 114}
{"molecule": "C[N]1C=C(C=N1)C2=C3\\C=N/NC(=O)C4=C3C(=CC(=C4)NC(=O)[C@H](N)C5CCCCC5)[NH]2", "unit.info": "%", "value.measured": 90.8}
{"molecule": "CCC1(c2ccccc2)C(=O)NCNC1=O", "unit.info": "%", "value.measured": 110}

Quick one: cell viability of `CCCCC(=O)O[C@]1(C(=O)CO)[C@H](C)C[C@H]2[C@@H]3CCC4=CC(=O)C=C[C@]4(C)[C@@]3(F)[C@@H](O)C[C@@]21C` ?
87.1

Suppose we examine the molecule `Clc1ccc(-c2nc3sccn3c2/C=N/OCc2ccc(Cl)c(Cl)c2)cc1` ; what cell viability value has been reported?
111

Which cell viability value belongs to `Cc1c(C)n(Cc2ccc(-c3ccccc3C(=O)O)cc2)c2ccc(C(=O)N[C@@H](C)c3ccc([N+](=O)[O-])cc3)cc12` ?
105

Requested read-out: cell viability. Entry: `CCC[C@H](NC(=O)[C@@H]1[C@H]2CCC[C@H]2CN1C(=O)[C@@H](NC(=O)[C@@H](NC(=O)c1cnccn1)C1CCCCC1)C(C)(C)C)C(=O)C(=O)NC1CC1`
118

Look at this molecule and give its reported cell viability. ClC1=CC=C(C=C1)C(C#N)C2=C(Cl)C=C(C=C2Cl)N3\N=C/C(=O)NC3=O (configuration not stated)
94.8

Dear colleague, I am looking for the recorded cell viability of the following molecule: CNC(=O)c1ccc2cc(C3(O)CCn4cncc43)ccc2c1 (configuration not stated)
113

What value of measured cell viability is listed for `CC(=O)O[C@@]1(CC[C@H]2[C@@H]3\C=C(Cl)/C4=C/C(=O)[C@@H]5C[C@@H]5[C@]4(C)[C@H]3CC[C@]12C)C(C)=O` ?
130

====

# Test system: NOMO1
# procedure.text: cell viability relative to DMSO control; higher = less cytotoxic
# condition.set: HPLM + 10% dialyzed FBS; 48 h; 0.0211 µM
value.kind: cell viability (%)
Express the result in % but write the number alone.

# example entries with known answers
{"compound": "O=C1NC(=O)/C(=C/c2ccc3nccc(-c4ccncc4)c3c2)S1", "cell viability [%]": 97.8}
{"compound": "Clc1ccc(-c2nc3sccn3c2/C=N/OCc2ccc(Cl)c(Cl)c2)cc1", "cell viability [%]": 126}
{"compound": "CC[S+](=O)([O-])c1cccc(-c2cc(C(=O)NC3CCN(C)CC3)c(C)c3[nH]c4ncc(C)cc4c23)c1", "cell viability [%]": 136}

GET /values?readout=cell viability&item= O=C(O)C1(Cc2cccc(Nc3nccs3)n2)CCC(Oc2cccc(Cl)c2F)CC1 (stereo not drawn)
108

Entry under review: `NC\1=N\C(=O)N(\C=C1)[C@@H]2O[C@H](CO)[C@@H](O)[C@@H]2O` . Reported cell viability?
62.9

Fill in the blank: the reported cell viability of `CC1(C)O[C@@H]2C[C@H]3[C@@H]4C[C@H](F)C5=CC(=O)C=C[C@]5(C)[C@@]4(F)[C@@H](O)C[C@]3(C)[C@]2(C(=O)CO)O1` is ____.
122

Recorded cell viability of `CC(C)c1noc(N2CCC(COc3ccc(-c4ccc([S+](C)(=O)[O-])cc4)nc3)CC2)n1` , please.
103

Recorded cell viability of `O=C(c1ccc(OCCN2CCCCC2)cc1)c1c(-c2ccc(O)cc2)sc2cc(O)ccc12` , please.
135

Reported cell viability, compound CNC(=O)c1ccc2cc(C3(O)CCn4cncc43)ccc2c1 (stereo not drawn) : ____
127

Which cell viability reading was recorded for the compound COC(=O)C[C@](O)(CCCC(C)(C)O)C(=O)O[C@@H]1C(OC)=CC23CCCN2CCc2cc4c(cc2[C@H]13)OCO4 (stereo partly drawn) ?
108

Quick check: cell viability of `Cc1nc2cnc3ccc(C#Cc4cccnc4)cc3c2n1-c1ccc(C(C)(C)C#N)cc1` ?
83.2

cell viability for ClC1=CC=C(C=C1)C(C#N)C2=C(Cl)C=C(C=C2Cl)N3\N=C/C(=O)NC3=O (stereo not drawn) ?
111

What value of measured cell viability is listed for `Cc1cnn(C)c1C(=O)Nc1cc(Nc2ccc3c(/C=C/c4ccccn4)n[nH]c3c2)ccc1F` ?
141

# cell viability lookup, item `COc1cc(F)c(F)c(Nc2ccc(I)cc2F)c1N[S+](=O)([O-])C1(C[C@H](O)CO)CC1`
113

Any idea what its cell viability is? The compound is `C[C@]12CCC(=O)C=C1CC[C@@H]1[C@@H]2[C@@H](O)C[C@@]2(C)[C@H]1CC[C@]2(O)C(=O)CO`
127

So what does the record say about cell viability for `CCOC(=O)N1CCN(/[N+]([O-])=N/Oc2ccc([N+](=O)[O-])cc2C#N)CC1` ?
110

Request the reported cell viability associated with CC1=C(C)C(=O)C(C(CCCCCC(=O)O)c2ccccc2)=C(C)C1=O (stereo not drawn)
93.9

Consider the compound `O=C(O)Cn1nnc(-c2cc(N3CCC(Oc4cc(F)ccc4Br)CC3)no2)n1` and give its measured cell viability.
111
